- test method notes: in vitro
- cond: human, hela cells, % viability
readout kind: viability at 28.5 h, 10 µM (%)
One number for each entry, in %.

• CCC(C)NC(=O)CN1CCN(Cn2nnc3ccccc3c2=O)CC1 (centres unmarked) = 100
• CCC(O)CNc1ccc(C(=O)N2CCC(N3CCOCC3)CC2)cn1 (centres unmarked) = 95.1
• COc1cncc(-c2cncc(Nc3cc(OC)c(OC)c(OC)c3)n2)c1 = 95.1
• OC1(c2ccc(Cl)cc2)CCNCC1 = 92
• COCCn1c(=O)[nH]c2ncc(-c3ccc4c(c3)OCO4)nc21 = 95.8

Record viability at 28.5 h, 10 µM per entry; entries follow.
1. C(=N\c1nc2ccccc2n1CCN1CCOCC1)/c1ccc2c(c1)OCO2
2. Cc1cc(C)cc(NC(=O)C(Cc2ccccc2)C(=O)Nc2cc(C)cc(C)c2)c1

1. 109
2. 106
